Tested on: primary rat mixed cortical cells
protocol: In vitro myelination assay (MBP positive myelin strands, fold myelin pixels above background)
Format: cell-based
assayContext: Rattus norvegicus, 1.0 μM compound, relative to baseline of no added compound; read-out: Fold myelin pixels above background
Reported fold induction at 1 µM values are given for each entry in this list.

| compound | fold induction at 1 µM |
| --- | --- |
| c1cnc(-n2cnc(Nc3cc(C4CC4)cc(N4CC(N5CCOCC5)C4)c3)n2)cn1 [Compound 539] | 10 to 100 |
| CCc1cc(Nc2ncn(-c3cccc(F)c3)n2)cc(N2CCN(C3COC3)CC2)c1 [Compound 468] | 100 to 1000 |
| CC(C)c1cc(Nc2ncn(-c3cnccn3)n2)cc(N2CCN(C3COC3)CC2)c1 [Compound 536] | 100 to 1000 |
| Cc1cc(Nc2ncn(-c3ccc(F)c(F)c3)n2)cc(N2CCN(C3(C)COC3)CC2)c1 [Compound 633] | 10 to 100 |
| Cc1cc(Nc2ncn(-c3cc(F)cc(F)c3)n2)cc(N2CC(N3CC4CC(C3)O4)C2)c1 [Compound 742] | 10 to 100 |
| COc1ccc(-n2cnc(Nc3cc(F)cc(N4CCN(C5COC5)CC4)c3)n2)cc1F [Compound 781] | 1 to 10 |
| Cc1cc(Nc2ncn(-c3cc(F)cc(F)c3)n2)cc(N2CCN(C(C)(C)C(=O)O)CC2)c1 [Compound 509] | 100 to 1000 |
| CC(C)c1cc(Nc2ncn(-c3ccncn3)n2)cc(N2CCN(C3COC3)CC2)c1 [Compound 511] | 100 to 1000 |
| Cc1cc(Nc2ncn(-c3ccccc3Cl)n2)cc(N2CCN(C)CC2)c1 [Compound 428] | 1 to 10 |
| Cc1cc(Nc2ncn(-c3cc(F)cc(F)c3)n2)cc(N2CC(C3COC3)C2)c1 [Compound 506] | 100 to 1000 |
| FC(F)(F)c1cc(Nc2ncn(-c3cnccn3)n2)cc(N2CCC(C3COC3)CC2)c1 [Compound 507] | 10 to 100 |
| CCN(C)Cc1cc(F)cc(-n2cnc(Nc3cc(C)cc(N4CCN(C)CC4)c3)n2)c1 [Compound 390] | 10 to 100 |
| Cc1cc(Nc2ncn(-c3ccc(OC(F)(F)F)cc3)n2)cc(N2CCN(C3COC3)CC2)c1 [Compound 478] | 1 to 10 |
| Fc1cc(F)cc(-n2cnc(Nc3cc(Cl)cc(N4CC(N5CCOCC5)C4)c3)n2)c1 [Compound 723] | 10 to 100 |
| FC(F)c1cccc(-n2cnc(Nc3cc(C(F)(F)F)cc(N4CC(N5CCOCC5)C4)n3)n2)c1 [Compound 636] | 1 to 10 |
| Cc1cc(Nc2ncn(-c3cc(F)cc(F)c3)n2)cc(N2CC(N3CCOC(C)(C)C3)C2)c1 [Compound 602] | 1 to 10 |

----------
Test system: primary rat mixed cortical cells
protocol: In vitro myelination assay (MBP positive myelin strands, fold myelin pixels above background)
Assay type: cell-based
assayContext: Rattus norvegicus, 10.0 μM compound, relative to baseline of no added compound; read-out: Fold myelin pixels above background, 10.0 μM

| compound | fold induction at 10 µM |
| --- | --- |
| COCCN1CCN(c2cc(C)cc(Nc3ncn(-c4ccccc4)n3)c2)CC1 [Compound 253] | 10 to 100 |
| Cc1cc(Nc2ncn(-c3ncncc3F)n2)cc(N2CCN(C3COC3)CC2)c1 [Compound 291] | 1 to 10 |
| Cc1cc(Nc2ncn(-c3cc(F)cc(F)c3)n2)cc(C2(F)CCN(C3COC3)C2)c1 (centres unmarked) [Compound 193] | 100 to 1000 |
| Cc1cc(Nc2ncn(-c3cncc(F)c3)n2)cc(N2CCN(C3COC3)CC2)c1 [Compound 24] | 100 to 1000 |
| Cc1cc(Nc2ncn(-c3cccnc3)n2)cc(N2CCN(C)CC2)c1 [Compound 297] | 10 to 100 |
| Cc1cc(Nc2ncn(-c3cccc(F)c3)n2)cc(NC2CCN(C3COC3)CC2)c1 [Compound 192] | ≤ 1 |
| Cc1cc(-n2cnc(Nc3cc(C4CC4)cc(N4CCN(C5COC5)CC4)c3)n2)nc(C)n1 [Compound 129] | ≤ 1 |
| CC(C)(C)c1cc(Nc2ncn(-c3ccccc3)n2)cc(N2CCN(C3COC3)CC2)c1 [Compound 376] | 1 to 10 |
| Cc1cc(Nc2ncn(-c3cc(F)cc(F)c3)n2)cc(O[C@@H]2CCN(C3COC3)C2)c1 [Compound 178] | 1 to 10 |
| COc1ccc(-n2cnc(Nc3cc(C4CC4)nc(N4CCC(C)CC4)c3)n2)cc1OC [Compound 22] | 100 to 1000 |
| Cc1cc(Nc2ncn(-c3cc(F)cc(F)c3)n2)cc(N(C)C2COC2)c1 [Compound 197] | 100 to 1000 |
| CC(=O)N1CCC(c2cc(C)cc(Nc3ncn(-c4ccccc4)n3)c2)CC1 [Compound 194] | ≤ 1 |
| Cc1cc(Nc2ncn(-c3ccc(F)cc3)n2)cc(N2CCCC2)c1 [Compound 269] | 10 to 100 |
| Cc1cc(Nc2ncn(-c3ccccc3)n2)cc(N2CCN(C3CCCC3)CC2)c1 [Compound 87] | 100 to 1000 |
| Fc1ccc(-n2cnc(Nc3cc(Cl)nc(N4CCOCC4)c3)n2)cc1F [Compound 100] | 100 to 1000 |
| Cc1cc(Nc2ncn(-c3ccccc3)n2)cc(N2CCNC(C)C2)c1 (centres unmarked) [Compound 259] | ≤ 1 |
| Cc1cc(Nc2ncn(-c3cc(F)cc(F)c3)n2)cc(N2CCN(C)C3(COC3)C2)c1 [Compound 349] | 100 to 1000 |

Taken from patent US10766869B2.
